Kindly supply the reported AFI values for the records listed here.
- Test system: Mythimna separata
- Measurement description: Antifeedant activity against Mythimna separata (Oriental armyworm) larvae assessed as antifeedant index by area of the leaf consumed
- Type: functional
- Design: concentration or dose not given beside the values
Record the value in %, omitting the unit from your answer.

Q: # lookup: AFI of "C[C@H]1C(=O)N2c3ccccc3[C@@]3(O)C[C@@H]4C(=O)N[C@](C)(c5nc6ccccc6c(=O)n54)N1[C@@H]23"
Result: 10

Q: // returns reported AFI for input "CC(=O)O[C@H]1C[C@@]2(C)[C@@H](CC[C@H]3[C@@]4(C)C=CC(=O)[C@@H](C)[C@@H]4[C@H](OC(C)=O)C(=O)[C@@]32C)/C1=C(\CCC=C(C)C)C(=O)O"
Result: 7.5

Q: Look up AFI: "COc1ccc2c(c1)N[C@@]1(C2=O)[C@H](C=C(C)C)N2C(=O)[C@@H]3CCCN3C(=O)[C@]2(O)[C@H]1O"
Result: 5

Q: // AFI lookup, key: "C[C@@H]1NC(=O)[C@@H](Cc2c[nH]c3ccccc23)n2c1nc1ccccc1c2=O"
Result: 30

Q: Record request: AFI value, item "COc1ccc2c3c([nH]c2c1)[C@H](C=C(C)C)N1C(=O)[C@@H]2CCCN2C(=O)[C@@H]1C3"
Result: 15

Q: Recorded AFI for C[C@@H]1N[C@H]2N(C1=O)c1ccccc1[C@@]2(O)C[C@@H]1C(=O)N[C@](C)(O)c2nc3ccccc3c(=O)n21 [3-HYDROXYFUMIQUINAZOLINE A] , please?
Result: 7.5

* * *

- Measurement description: Toxicity in Artemia salina (brine shrimp) […]
- Assay type: organism-based
- Assay setup: in vivo
Exercise: for every item that follows, state its recorded LC50.
Give the value in µg/mL but do not write µg/mL after it.

Q: Please give the measured LC50 for this compound: COc1ccc2c3c4n(c2c1)[C@H](C=C(C)C)OOC(C)(C)C[C@@H]4N1C(=O)[C@@H]2CCCN2C(=O)[C@]1(O)[C@H]3O [VERRUCULOGEN]
Result: 15.8

Q: I have this compound here, "C[C@@H]1NC(=O)[C@@H]2C[C@@H](O)CN2C1=O" , and I need its recorded LC50.
Result: 66.1

* * *

- System: Alternaria solani
- Measurement description: Antifungal activity against Alternaria solani at 28 degC after 48 hr microbroth dilution method
- Format: functional
For each entry below, report its MIC value.
Note: unit µg/mL is implicit; provide only the numeric part.

Q: Query MIC on Alternaria solani for "COc1ccc2c3c([nH]c2c1)[C@H](CC(C)(C)O)N1C(=O)[C@@H]2CCCN2C(=O)[C@@]1(O)[C@H]3OC"
Result: 6.25

Q: Find MIC (Alternaria solani) for the entry COC(=O)Nc1nc2ccccc2[nH]1 [CARBENDAZIM]
Result: 12.5

Q: Alternaria solani / MIC / COc1ccc2c3c([nH]c2c1)[C@H](C=C(C)C)N1C(=O)[C@@H]2CCCN2C(=O)[C@@]1(O)[C@H]3OC [CYCLOTRYPROSTATIN B] : value?
Result: 12.5

Q: Under Alternaria solani: MIC value of C[C@@H]1N[C@H]2N(C1=O)c1ccccc1[C@@]2(O)C[C@@H]1C(=O)N[C@](C)(O)c2nc3ccccc3c(=O)n21 [3-HYDROXYFUMIQUINAZOLINE A] ?
Result: 12.5

Q: I'm curious: which MIC was measured for "COc1ccc2c3c([nH]c2c1)[C@H](CC(C)(C)O)N1C(=O)[C@@H]2CCCN2C(=O)[C@@]1(O)[C@H]3O" tested on Alternaria solani?
Result: 25

Q: Param readout= MIC; system= Alternaria solani; entry= COc1ccc2c3c4n(c2c1)[C@H](C=C(C)C)OOC(C)(C)C[C@@H]4N1C(=O)[C@@H]2CCCN2C(=O)[C@]1(O)[C@H]3O [VERRUCULOGEN] ; returns value.
Result: 12.5

Q: Request body: readout MIC, system Alternaria solani, query Cc1cc(O)no1 [HYMEXAZOL] . Return the value.
Result: 12.5

Q: Write down the reported MIC of C[C@@H]1N[C@H]2N(C1=O)c1ccccc1[C@@]2(O)C[C@@H]1C(=O)N[C@@H](C)c2nc3ccccc3c(=O)n21 [FUMIQUINAZOLINE A] , test system: Alternaria solani.
Result: 12.5
